Reported values of normalized growth for individual entries
assay: chemical genetic growth profiling, strain panel (AID 1159580);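 further: tested at 20 µM; growth read once vehicle control cultures reached saturation at 30 °C; 1 = growth at the plate median or of vehicle wells; lower values mean less growth of the strain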
condition_summary: S. cerevisiae deletion strains, growth OD, locus YJR016C, strain ILV3, hits give low values
The campaign covered roughly 5,500 compounds. About 2,000 (36%) were called active. Another 18% or so got no clear call; they are omitted. This is one part of the list.
Write the number on its own, no unit after it.

Examples with their reported normalized growth follow.
1) Cc1nc(-c2ccccn2)[nH]c(=O)c1Cc1c(Cl)cccc1Cl; 0.952
2) CC(C)(C)C(=O)N(Cc1cccnc1)Cc1ccc(Cl)cc1Cl; 0.998

Please find the next molecule below.
Prompt line: Report normalized growth for Cc1nc(-c2ccccn2)nc(SCc2ccccc2)c1Cl please.
Response line: 0.936
